All figures here come from ChEMBL document CHEMBL1139833.

experiment: AUC (0-24h) in Fischer 344 rat at 2.5 mg/kg, iv; format: ADME, organism-based; design: time < 24 hr, dose 2.5 mg/kg, route intravenous; conditions: plasma
ENDPOINT: AUC(0-t) at 24 h (ng·h/mL)
One number for each entry, in ng·h/mL.

Param item = N[C@@]1(C(=O)O)CS(=O)(=O)[C@H]2[C@H](C(=O)O)[C@H]21 ; retrieve measured AUC(0-t) at 24 h.
2900

====

assay: Plasma concentration in rat at 10 mg/kg, po after 24 hrs; type: ADME, organism-based; set-up: dose 10 mg/kg, route oral
ENDPOINT: concentration at 24 h (ng/mL)
Answers are plain numbers, in ng/mL.

I would be grateful if you could share the reported concentration at 24 h for N[C@@]1(C(=O)O)C[S+]([O-])[C@H]2[C@H](C(=O)O)[C@H]21 (stereo in doubt; (+)-11) .
3
